experimental.target: human TGF-beta 1 (R&D Systems, Cat # 240-B/CF) (human, UniProt P01137 279-390)
Sequence (P01137 279-390 limits assumed): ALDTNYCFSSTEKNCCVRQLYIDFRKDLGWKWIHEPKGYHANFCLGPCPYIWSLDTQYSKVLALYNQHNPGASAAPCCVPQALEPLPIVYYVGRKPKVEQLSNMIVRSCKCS
procedure.summary: cell-based or functional assay
assay.readout: Fold Improvement in IC50 relative to mAb2471 (HT-2 cell proliferation assay) (fold)
Numbers only, in fold.

mAb 21D1 (antibody, human IgG4 S228P, kappa, V domains shown, Full-length IgG4 antibody; also called LA307-21D1) VH: QVQLVQSGAEVKKPGASVKVSCKASGYTFTDYNIHWVRQAPGQGLEWMGYIYPYDGETGYNQKFKSRVTMTTDTSTSTAYMELRSLRSDDTAVYYCARGYRWFAYWGQGTLVTVSS VL: DIQMTQSPSSLSASVGDRVTITCRASSSVPYMHWFQQKPGKAPKSLIYATSNPAYGVPSRFSGSGSGTDFTLTISSLQPEDFATYYCQQWDLNPPAFGQGTKLEIKR: 107

Provide Fold Improvement in IC50 relative to mAb2471 (HT-2 cell proliferation assay) values for the following items, in order.
1. mAb DM7 (antibody, IgG4, V domains shown) VH: QVQLVQSGAEVKKPGASVKVSCKASGYDFTDYNMHWVRQAPGQGLEWMGYIYPYDGETGYNQKFKSRVTMTTDTSTSTAYMELRSLRSDDTAVYYCARGYRWLYYWGQGTLVTVSS VL: DIQMTQSPSSLSASVGDRVTITCRASSSVSYMHWYQQKPGKAPKPLIYATSNLAKGVPSRFSGSGSGTDFTLTISSLQPEDFATYYCQQWDLNPPAFGQGTKLEIK
2. mAb 23A3 (antibody, IgG4, V domains shown) VH: QVQLVQSGAEVKKPGASVKVSCKASGYDFTDYNMVWVRQAPGQGLEWMGSIYPYDGETGYNQKFKSRVTMTTDTSTSTAYMELRSLRSDDTAVYYCARGYRAFEYWGQGTLVTVSS VL: DIQMTQSPSSLSASVGDRVTITCRASSSVPYMHWYQQKPGKAPKLLIYATSNPAYGVPSRFSGSGSGTDFTLTISSLQPEDFATYYCQQWDLNPPAFGQGTKLEIK

Result string:
140
234
